Origin of the recorded values: ChEMBL document CHEMBL3102848

system-tested: P2X purinoceptor 4 (Homo sapiens, UniProt Q99571)
Sequence (Q99571 whole entry): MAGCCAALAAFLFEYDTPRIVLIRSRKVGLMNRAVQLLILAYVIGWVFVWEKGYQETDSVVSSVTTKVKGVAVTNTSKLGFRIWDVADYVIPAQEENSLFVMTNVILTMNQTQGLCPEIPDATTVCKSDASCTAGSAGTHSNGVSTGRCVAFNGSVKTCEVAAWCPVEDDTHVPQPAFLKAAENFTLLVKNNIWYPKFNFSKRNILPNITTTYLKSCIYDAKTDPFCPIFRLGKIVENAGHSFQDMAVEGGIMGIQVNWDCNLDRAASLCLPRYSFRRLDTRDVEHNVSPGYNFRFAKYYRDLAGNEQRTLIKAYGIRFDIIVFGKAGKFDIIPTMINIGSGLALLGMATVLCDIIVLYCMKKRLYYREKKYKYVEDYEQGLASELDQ
assay-explanation: Antagonist activity at human P2X4 receptor expressed in human 1321N1 cells assessed as inhibition of ATP-induced cytosolic calcium influx preincubated for 30 mins followed by ATP addition by Fluo-4 AM dye-based fluorescence assay
The following molecules are shown together with reported IC50 values.

molecule | bound-sign | IC50 / µM
O=C(NC1CCC(O)CC1)N1c2ccccc2C=Cc2ccccc21 (stereo unspecified) | > | 20
CC(=O)N1c2ccccc2C=Cc2ccccc21 | > | 100
CC(C)N(C(=O)c1cccc2c1Nc1ccccc1C=C2)C(C)C | = | 30.6
NC(=O)N1c2ccccc2C=Cc2ccc(O)cc21 | = | 72.8
NC(=O)N1c2ccccc2C=Cc2cc(F)ccc21 | > | 100
CCN(CC)C(=O)N1c2ccccc2C=Cc2cccc(C(=O)N(C(C)C)C(C)C)c21 | = | 52.5

----------
system-tested: P2X purinoceptor 4 (Homo sapiens) (UniProt Q99571)
Sequence (Q99571 whole entry): as above
assay-explanation: Antagonist activity at human P2X4 receptor expressed in human 1321N1 cells assessed as inhibition of ATP-induced cytosolic calcium influx at 100 uM preincubated for 30 mins followed by ATP addition by Fluo-4 AM dye-based fluorescence assay
Assay type: cell-based

line-notation | units-of-measure | inhibition
COc1ccc2c(c1)N(C(N)=O)c1ccccc1C=C2 | % | 30
O=C(N1CCCC1)N1c2ccccc2C=Cc2ccccc21 | % | 98
O=C(N1CCCCC1)N1c2ccccc2C=Cc2ccccc21 | % | 72
CN(C)C(=O)N1c2ccccc2C=Cc2ccccc21 | % | 49
COC1=Cc2ccccc2N(C(N)=O)c2ccccc21 | % | 34
O=C(NCc1ccccc1)N1c2ccccc2C=Cc2ccccc21 | % | 75
CC(C)COC(=O)N1c2ccccc2C=Cc2ccccc21 | % | 58
O=C(N1CCOCC1)N1c2ccccc2C=Cc2ccccc21 | % | 50
CCN(CC)C(=O)N1c2ccccc2C=Cc2ccncc21 | % | 52
O=C(Nc1ccncc1)N1c2ccccc2C=Cc2ccccc21 | % | 30
O=C(c1ccccc1)N1c2ccccc2C=Cc2ccccc21 | % | 75
O=C(N(CCO)CCO)N1c2ccccc2C=Cc2ccccc21 | % | 2

----------
system-tested: P2X purinoceptor 4 (Homo sapiens)
assay-explanation: Antagonist activity at human P2X4 receptor expressed in human 1321N1 cells assessed as inhibition of ATP-induced cytosolic calcium influx at 100 uM preincubated for 30 mins followed by ATP addition by Fluo-4 AM dye-based fluorescence assay
Format: cell-based
// values below are reported inhibition

compound | inhibition, %
NC(=O)N1c2ccccc2CC(O)c2ccccc21 (racemic) [LICARBAZEPINE] | 28
COC(=O)N1c2ccccc2C=Cc2ccccc21 | 51
CN(C)CCN(C)C(=O)N1c2ccccc2C=Cc2ccccc21 | 42
CNC1=Cc2ccccc2N(C(N)=O)c2ccccc21 | 80
C1=Cc2ccccc2N(Cc2ccccc2)c2ccccc21 | 34
CC(C)NC(=O)N1c2ccccc2C=Cc2ccccc21 | 47
CN(C)c1ccc2c(c1)N(C(N)=O)c1ccccc1C=C2 | 39
O=C(NCCc1ccccc1)N1c2ccccc2C=Cc2ccccc21 | 107
CN(C)CCCNC(=O)N1c2ccccc2C=Cc2ccccc21 | 54
NC(=O)N1c2ccccc2C=Cc2ccc(C(F)(F)F)cc21 | 72
CCOC1Cc2ccccc2N(C(N)=O)c2ccccc21 (racemic) | 17
CN1CCC(NC(=O)N2c3ccccc3C=Cc3ccccc32)CC1 | 56
Cc1ccc2c(c1)N(C(N)=O)c1ccccc1C=C2 | 21
NC(=O)N1c2ccccc2C=Cc2ccc(F)cc21 | -2
NC(=O)N1c2ccccc2C=Cc2ccccc21 [CARBAMAZEPINE] | 35

----------
system-tested: P2X purinoceptor 1 (Homo sapiens, UniProt P51575)
Sequence (P51575 whole entry): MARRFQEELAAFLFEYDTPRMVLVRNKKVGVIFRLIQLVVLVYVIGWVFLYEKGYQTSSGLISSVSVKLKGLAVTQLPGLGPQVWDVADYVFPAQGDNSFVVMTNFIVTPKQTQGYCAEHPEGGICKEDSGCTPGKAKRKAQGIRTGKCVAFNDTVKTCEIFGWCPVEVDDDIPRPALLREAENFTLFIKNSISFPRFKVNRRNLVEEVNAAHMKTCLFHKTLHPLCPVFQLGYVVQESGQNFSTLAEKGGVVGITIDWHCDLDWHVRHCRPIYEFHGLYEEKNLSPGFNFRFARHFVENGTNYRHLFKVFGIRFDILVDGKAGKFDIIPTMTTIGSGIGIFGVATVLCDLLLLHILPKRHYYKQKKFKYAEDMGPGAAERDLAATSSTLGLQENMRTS
assay-explanation: Antagonist activity at human P2X1 receptor expressed in human 1321N1 cells assessed as inhibition of ATP-induced cytosolic calcium influx preincubated for 30 mins followed by ATP addition by Fluo-4 AM dye-based fluorescence assay
pIC50: −log10 of the molar value.
Would you please tag the item T when its pIC50 is 5 or above, and F when it is below?

line-notation | class-assignment
CC(C)N(C(=O)N1c2ccccc2C=Cc2ccccc21)C(C)C | T
CCCN(CCC)C(=O)N1c2ccccc2C=Cc2ccccc21 | T
CCN(CC)C(=O)N1c2ccccc2C=Cc2ccccc21 | F
O=C(NC1CCCCC1)N1c2ccccc2C=Cc2ccccc21 | F
O=C(N1CCCC1)N1c2ccccc2C=Cc2ccccc21 | F
O=C(N1CCCCC1)N1c2ccccc2C=Cc2ccccc21 | F

----------
system-tested: UniProt:P51577
Sequence (P51577 whole entry): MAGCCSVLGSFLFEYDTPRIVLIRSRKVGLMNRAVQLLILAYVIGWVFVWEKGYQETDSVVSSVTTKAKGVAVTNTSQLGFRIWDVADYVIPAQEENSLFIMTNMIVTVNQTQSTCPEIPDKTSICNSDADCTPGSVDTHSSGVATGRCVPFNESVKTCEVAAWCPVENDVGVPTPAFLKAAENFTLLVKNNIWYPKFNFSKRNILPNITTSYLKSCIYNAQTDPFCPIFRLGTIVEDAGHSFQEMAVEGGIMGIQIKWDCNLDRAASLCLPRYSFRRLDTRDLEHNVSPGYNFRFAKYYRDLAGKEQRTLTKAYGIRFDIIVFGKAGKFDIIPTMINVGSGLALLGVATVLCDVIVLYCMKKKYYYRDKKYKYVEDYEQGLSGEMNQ
assay-explanation: Antagonist activity at rat P2X4 receptor assessed as inhibition of ATP-induced calcium influx preincubated for 30 mins followed by ATP addition by Fluo-4 AM dye-based fluorescence assay
Each entry below carries its reported IC50.
property-label: IC50

line-notation | property-label | reading
O=C(N1CCCCC1)N1c2ccccc2C=Cc2ccccc21 | IC50 | 95.8 µM
CCCN(CCC)C(=O)N1c2ccccc2C=Cc2ccccc21 | IC50 | 35.9 µM
CCN(CC)C(=O)N1c2ccccc2C=Cc2ccccc21 | IC50 | 43 µM
O=C(NC1CCCCC1)N1c2ccccc2C=Cc2ccccc21 | IC50 | 109 µM

----------
Below: a set of entries, each annotated with reported pIC50.
system-tested: P2X purinoceptor 4 (Homo sapiens, UniProt Q99571)
assay-explanation: Antagonist activity at human P2X4 receptor expressed in human 1321N1 cells assessed as inhibition of ATP-induced cytosolic calcium influx preincubated for 30 mins followed by ATP addition by Fluo-4 AM dye-based fluorescence assay
pIC50: −log10 of the molar value.

molecule | system-tested | pIC50
CN(C)CCN(C)C(=O)N1c2ccccc2C=Cc2ccccc21 | P2X purinoceptor 4 (Homo sapiens, UniProt Q99571) | ≤ 4.00
NC(=O)N1c2ccccc2C=C(N)c2ccccc21 | P2X purinoceptor 4 (Homo sapiens, UniProt Q99571) | < 5.00
NC(=O)N1c2ccccc2CC(O)c2ccccc21 (racemic) [LICARBAZEPINE] | P2X purinoceptor 4 (Homo sapiens, UniProt Q99571) | < 4.00
O=C(N1CCC(O)CC1)N1c2ccccc2C=Cc2ccccc21 | P2X purinoceptor 4 (Homo sapiens, UniProt Q99571) | < 4.00
CNC(=O)N1c2ccccc2C=Cc2ccccc21 | P2X purinoceptor 4 (Homo sapiens, UniProt Q99571) | ≤ 4.00
NC(=O)N1c2ccccc2CCc2ccccc21 | P2X purinoceptor 4 (Homo sapiens, UniProt Q99571) | < 4.00
NC(=O)N1c2ccccc2C2OC2c2ccccc21 (stereo not given) [CARBAMAZEPINE EPOXIDE] | P2X purinoceptor 4 (Homo sapiens, UniProt Q99571) | < 5.00
NC1CCC(NC(=O)N2c3ccccc3C=Cc3ccccc32)CC1 (stereo not given) | P2X purinoceptor 4 (Homo sapiens, UniProt Q99571) | < 5.00
CCCCNC(=O)N1c2ccccc2C=Cc2ccccc21 | P2X purinoceptor 4 (Homo sapiens, UniProt Q99571) | ≤ 4.00
Cc1ccc2c(c1)N(C(N)=O)c1ccccc1C=C2 | P2X purinoceptor 4 (Homo sapiens, UniProt Q99571) | < 4.00
COc1ccc2c(c1)N(C(N)=O)c1ccccc1C=C2 | P2X purinoceptor 4 (Homo sapiens, UniProt Q99571) | < 4.00
CC(=O)O[C@H]1Cc2ccccc2N(C(N)=O)c2ccccc21 [ESLICARBAZEPINE ACETATE] | P2X purinoceptor 4 (Homo sapiens, UniProt Q99571) | < 4.70
NC(=O)N1c2ccccc2C=Cc2ccccc21 [CARBAMAZEPINE] | P2X purinoceptor 4 (Homo sapiens, UniProt Q99571) | < 4.00
C1=Cc2ccccc2N(Cc2ccccc2)c2ccccc21 | P2X purinoceptor 4 (Homo sapiens, UniProt Q99571) | < 4.00
O=C(OCc1ccccc1)N1c2ccccc2C=Cc2ccccc21 | P2X purinoceptor 4 (Homo sapiens, UniProt Q99571) | 5.22
NC(=O)N1c2ccccc2C=Cc2ccc(F)cc21 | P2X purinoceptor 4 (Homo sapiens, UniProt Q99571) | < 4.00
CC(C)N(C(=O)N1c2ccccc2C=Cc2ccccc21)C(C)C | P2X purinoceptor 4 (Homo sapiens, UniProt Q99571) | 5.46
O=C(NC1CCCCC1)N1c2ccccc2C=Cc2ccccc21 | P2X purinoceptor 4 (Homo sapiens, UniProt Q99571) | 4.47
O=C(N1CCOCC1)N1c2ccccc2C=Cc2ccccc21 | P2X purinoceptor 4 (Homo sapiens, UniProt Q99571) | ≤ 4.00
CCOC1Cc2ccccc2N(C(N)=O)c2ccccc21 (racemic) | P2X purinoceptor 4 (Homo sapiens, UniProt Q99571) | < 4.00
NC(=O)N1c2ccccc2C=Cc2c1ccc1ccccc21 | P2X purinoceptor 4 (Homo sapiens, UniProt Q99571) | 4.29
CN(C)CCCNC(=O)N1c2ccccc2C=Cc2ccccc21 | P2X purinoceptor 4 (Homo sapiens, UniProt Q99571) | 4.00
O=C(NCc1ccccc1)N1c2ccccc2C=Cc2ccccc21 | P2X purinoceptor 4 (Homo sapiens, UniProt Q99571) | 4.10
O=C(NCCc1ccccc1)N1c2ccccc2C=Cc2ccccc21 | P2X purinoceptor 4 (Homo sapiens, UniProt Q99571) | 4.44
O=C(Nc1ccncc1)N1c2ccccc2C=Cc2ccccc21 | P2X purinoceptor 4 (Homo sapiens, UniProt Q99571) | < 4.00
O=C(N1CCCC1)N1c2ccccc2C=Cc2ccccc21 | P2X purinoceptor 4 (Homo sapiens, UniProt Q99571) | 4.47
O=C(Nc1ccccc1)N1c2ccccc2C=Cc2ccccc21 | P2X purinoceptor 4 (Homo sapiens, UniProt Q99571) | 4.00
NC(=O)N1c2ccccc2CC(=O)c2ccccc21 [OXCARBAZEPINE] | P2X purinoceptor 4 (Homo sapiens, UniProt Q99571) | < 5.00
COC1=Cc2ccccc2N(C(N)=O)c2ccccc21 | P2X purinoceptor 4 (Homo sapiens, UniProt Q99571) | < 4.00
CNC1=Cc2ccccc2N(C(N)=O)c2ccccc21 | P2X purinoceptor 4 (Homo sapiens, UniProt Q99571) | 4.43
O=C(N(CCO)CCO)N1c2ccccc2C=Cc2ccccc21 | P2X purinoceptor 4 (Homo sapiens, UniProt Q99571) | < 4.00
CC(C)NC(=O)N1c2ccccc2C=Cc2ccccc21 | P2X purinoceptor 4 (Homo sapiens, UniProt Q99571) | 4.72
CC(C)(C)NC(=O)N1c2ccccc2C=Cc2ccccc21 | P2X purinoceptor 4 (Homo sapiens, UniProt Q99571) | 4.86
CN1CCC(NC(=O)N2c3ccccc3C=Cc3ccccc32)CC1 | P2X purinoceptor 4 (Homo sapiens, UniProt Q99571) | ≤ 4.00
CN(C)C(=O)N1c2ccccc2C=Cc2ccccc21 | P2X purinoceptor 4 (Homo sapiens, UniProt Q99571) | ≤ 4.00
